Source listed as PubChem BioAssay AID588590.

target: DNA polymerase iota (Homo sapiens) (UniProt Q9UNA4); experiment: qHTS for Inhibitors of Polymerase Iota; conditions: Pol iota fluorescent replication assay, 10 min; series mostly up to 115 µM; note: potency is the fitted concentration of half-maximal effect
Sequence (Q9UNA4 whole entry, looked up): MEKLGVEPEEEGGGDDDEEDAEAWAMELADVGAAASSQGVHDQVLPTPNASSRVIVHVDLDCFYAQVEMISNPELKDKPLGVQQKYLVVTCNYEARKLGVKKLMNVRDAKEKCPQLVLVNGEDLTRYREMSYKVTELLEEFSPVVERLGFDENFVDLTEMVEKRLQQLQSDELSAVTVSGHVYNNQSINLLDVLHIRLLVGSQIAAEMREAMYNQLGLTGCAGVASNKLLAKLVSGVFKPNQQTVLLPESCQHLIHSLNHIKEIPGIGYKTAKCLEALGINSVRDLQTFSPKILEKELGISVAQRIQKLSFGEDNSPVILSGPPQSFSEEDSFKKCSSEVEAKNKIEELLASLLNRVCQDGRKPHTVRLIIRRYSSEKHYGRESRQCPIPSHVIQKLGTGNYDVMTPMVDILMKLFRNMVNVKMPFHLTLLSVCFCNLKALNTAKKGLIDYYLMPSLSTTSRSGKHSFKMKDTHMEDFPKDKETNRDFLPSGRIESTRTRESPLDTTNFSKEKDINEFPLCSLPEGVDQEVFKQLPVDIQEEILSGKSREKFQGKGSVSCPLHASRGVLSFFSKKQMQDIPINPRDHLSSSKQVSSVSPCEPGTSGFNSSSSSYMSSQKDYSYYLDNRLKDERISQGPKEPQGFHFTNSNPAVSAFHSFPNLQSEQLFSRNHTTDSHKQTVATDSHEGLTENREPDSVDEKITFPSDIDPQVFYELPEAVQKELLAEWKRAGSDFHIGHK
Screen size: about 390,000 compounds; about 4,000 (1%) were called active. Inconclusive results (about 7%) are left out. Shown is part of a subset that was picked to be rich in actives.

{"COMPOUND": "CO[C@H]1[C@@H](O)[C@@H](C)O[C@H](O[C@H]2[C@H](Oc3cccc4c(O)c5c(=O)oc6ccc(C)c7c(=O)oc(c34)c5c67)O[C@H](C)[C@H](O)[C@@H]2O)[C@@H]1O", "Potency": "20 µM (active)"}
{"COMPOUND": "CCCCN1C2CCC1CC(OC(c1ccc(F)cc1)c1ccc(F)cc1)C2 (centres undefined)", "Potency": "inactive"}
{"COMPOUND": "O=C1NC(=O)N(Cc2ccco2)C(=O)/C1=C\\c1cccn1CCOc1ccccc1", "Potency": "22.4 µM (active)"}
{"COMPOUND": "CC(=O)c1ccc(OC(=O)N2CCOCC2)cc1", "Potency": "inactive"}
{"COMPOUND": "O=C(O)c1cc[c]([Sb](=[O])([OH])[OH])cc1[N+](=O)[O-]", "Potency": "1 µM (active)"}
{"COMPOUND": "CCOC(=O)c1ccc(N2C(=O)c3[nH]nc(-c4ccccc4)c3C2c2ccc(C(C)C)cc2)cc1 (centres undefined)", "Potency": "inactive"}
{"COMPOUND": "COc1cc([C@@H]2c3cc4c(cc3[C@H](OC(C)=O)[C@H]3COC(=O)[C@H]23)OCO4)cc(OC)c1OC", "Potency": "inactive"}
{"COMPOUND": "CC(=O)NBr", "Potency": "inactive"}
{"COMPOUND": "CC(C)N1C(=S)SC(C)(C)C1n1oc(=O)n(-c2ccc(Cl)c(Cl)c2)c1=O (centres undefined)", "Potency": "inactive"}

---

target: DNA polymerase iota (Homo sapiens); test: qHTS for Inhibitors of Polymerase Iota; conditions: Pol iota fluorescent replication assay, 10 min; series mostly up to 115 µM
Among all 390,000 compounds or so, about 4,000 (1%) were called active. About 7% were inconclusive and are not listed. Only a selection was taken, and actives are over-represented in it overall.
MEASURED PROPERTY: outcome

{"COMPOUND": "CC1=NNC(=O)C1Cc1c(Cl)cccc1Cl (stereo not drawn)", "ASSAY VALUE": "inactive"}
{"COMPOUND": "O=C(C1CCN(S(=O)(=O)c2ccc(Br)s2)CC1)N1CCN(c2ccccc2)CC1", "ASSAY VALUE": "inactive"}
{"COMPOUND": "Cc1ccc(C)c(NS(=O)(=O)c2ccc(OCC(=O)NCc3cccnc3)cc2)c1", "ASSAY VALUE": "inactive"}

---

molecular target: DNA polymerase iota (Homo sapiens); test: qHTS for Inhibitors of Polymerase Iota; details: Pol iota fluorescent replication assay, 10 min; series mostly up to 115 µM; note: potency is the fitted concentration of half-maximal effect
About 4,000 (1%) of roughly 390,000 compounds were called active. Not shown: some 7% with an inconclusive outcome. The sample as a whole holds a higher share of actives than the screen did.
MEASURED PROPERTY: Potency

{"COMPOUND": "Cn1cc(/C=C/c2nc3ccccc3c(=O)n2-c2ccccc2)c2ccccc21", "MEASURED PROPERTY": "Potency", "ASSAY VALUE": "inactive"}
{"COMPOUND": "CC(=O)c1c(O)c(C)c(O)c(Cc2c(O)c3c(c(C(=O)/C=C/c4ccccc4)c2O)OC(C)(C)C=C3)c1O", "MEASURED PROPERTY": "Potency", "ASSAY VALUE": "50.1 µM (active)"}
{"COMPOUND": "COc1cc(C2c3cc4c(cc3C(O)C3COC(=O)C23)OCO4)cc(OC)c1OC (configuration not stated)", "MEASURED PROPERTY": "Potency", "ASSAY VALUE": "inactive"}
{"COMPOUND": "CCOC(=O)C(NS(=O)(=O)c1ccc(C)cc1)(C(F)(F)F)P(=O)(OCC(C)C)OCC(C)C (configuration not stated)", "MEASURED PROPERTY": "Potency", "ASSAY VALUE": "inactive"}
{"COMPOUND": "O=C1c2ccccc2NC(c2ccccc2O)N1NS(=O)(=O)c1ccccc1 (configuration not stated)", "MEASURED PROPERTY": "Potency", "ASSAY VALUE": "inactive"}
{"COMPOUND": "CCOC(=O)c1ncn2c1[C@@H]1CCCN1C(=O)c1cc(OC)ccc1-2", "MEASURED PROPERTY": "Potency", "ASSAY VALUE": "inactive"}
{"COMPOUND": "O=C1C=C(NS(=O)(=O)c2ccccc2)C(=O)c2ccccc21", "MEASURED PROPERTY": "Potency", "ASSAY VALUE": "inactive"}
{"COMPOUND": "O=c1c2ccccc2nc(/C=C/c2ccc(F)cc2)n1-c1ccccc1O", "MEASURED PROPERTY": "Potency", "ASSAY VALUE": "inactive"}
{"COMPOUND": "CCN(CC)C(=O)Oc1ccc(Br)cc1C(=O)Nc1ccc(F)c(Cl)c1", "MEASURED PROPERTY": "Potency", "ASSAY VALUE": "inactive"}
{"COMPOUND": "O=C(NCc1cccs1)c1ccc(Br)o1", "MEASURED PROPERTY": "Potency", "ASSAY VALUE": "inactive"}
{"COMPOUND": "CNCC[C@H](Oc1ccc(C(F)(F)F)cc1)c1ccccc1", "MEASURED PROPERTY": "Potency", "ASSAY VALUE": "inactive"}
{"COMPOUND": "O=C(Oc1ccc2c(c1)CCC2)N1CCOCC1", "MEASURED PROPERTY": "Potency", "ASSAY VALUE": "inactive"}
{"COMPOUND": "CCc1ccccc1NC(=O)c1sc2nc3c(cc2c1N)CN(Cc1ccccc1)CC3", "MEASURED PROPERTY": "Potency", "ASSAY VALUE": "inactive"}
{"COMPOUND": "O=[N+]([O-])c1ccc(Cl)c(Cl)c1", "MEASURED PROPERTY": "Potency", "ASSAY VALUE": "inactive"}
{"COMPOUND": "CCOP(=O)(OCC)C(Nc1cccc(C)c1)c1ccc(F)cc1 (configuration not stated)", "MEASURED PROPERTY": "Potency", "ASSAY VALUE": "inactive"}
{"COMPOUND": "Cc1nnc(NCc2ccccc2)c2c1nnn2Cc1ccc(F)cc1", "MEASURED PROPERTY": "Potency", "ASSAY VALUE": "inactive"}
{"COMPOUND": "O=C(O)/C=C/c1ccc2c(c1)OCO2", "MEASURED PROPERTY": "Potency", "ASSAY VALUE": "inactive"}
{"COMPOUND": "O=C1NC(=O)N(c2ccccc2)C(=O)/C1=C/c1ccc([N+](=O)[O-])s1", "MEASURED PROPERTY": "Potency", "ASSAY VALUE": "11.2 µM (active)"}
{"COMPOUND": "Cc1ccc(NC(=O)CN(C)CC(=O)Nc2cccc(F)c2)cc1[N+](=O)[O-]", "MEASURED PROPERTY": "Potency", "ASSAY VALUE": "inactive"}
{"COMPOUND": "CCCCOP(=O)(c1ccc(N(C)C)cc1)C(O)c1cc(OC)ccc1OC (configuration not stated)", "MEASURED PROPERTY": "Potency", "ASSAY VALUE": "inactive"}
{"COMPOUND": "Cc1ccccc1NC(=O)c1c(NC(=O)c2ccccc2F)sc2c1CCC(C)C2 (configuration not stated)", "MEASURED PROPERTY": "Potency", "ASSAY VALUE": "inactive"}
{"COMPOUND": "O=c1c2ccccc2nc(/C=C/c2ccco2)n1-c1ccccc1O", "MEASURED PROPERTY": "Potency", "ASSAY VALUE": "44.7 µM (active)"}
